Hey, just so you know, these numbers are from ChEMBL document CHEMBL4350989.

- Test system: HCT-116
- assay details: Antiproliferative activity against human HCT116 cells overexpressing FAK assessed as reduction in cell viability after 72 hrs by MTS assay
- test parameters: HCT-116, 72 h
parameter: IC50 (nM)

A selection of reference data follows.
CNC(=O)c1ccccc1Nc1nc(Nc2ccc(C(=O)N3CCN(C(=S)SCCS(C)(=O)=O)CC3)cc2)ncc1Cl :: 30
CNC(=O)c1ccccc1Nc1nc(Nc2ccc(C(=O)N3CCN(C(=S)SCCC(=O)OC)CC3)cc2)ncc1Cl :: 260
CNC(=O)c1ccccc1Nc1nc(Nc2ccc(C(=O)N3CCN(C(=S)SCc4ccccn4)CC3)cc2)ncc1Cl :: 60
C=CCSC(=S)N1CCN(C(=O)c2ccc(Nc3ncc(Cl)c(Nc4ccccc4C(=O)NC)n3)cc2)CC1 :: 110

I = CNC(=O)c1ccccc1Nc1nc(Nc2ccc(C(=O)N3CCN(C(=S)SCCN(C)C)CC3)cc2)ncc1F
II = CNC(=O)c1ccccc1Nc1nc(Nc2ccc(C(=O)N3CCN(C(=S)SCc4ccncc4)CC3)cc2)ncc1Cl
III = CNC(=O)c1ccccc1Nc1nc(Nc2ccc(C(=O)N3CCN(C(=S)SCCN4CCOCC4)CC3)cc2)ncc1Cl
IV = CNC(=O)c1ccccc1Nc1nc(Nc2ccc(C(=O)N3CCN(C(=S)SCCN4CCN(C)CC4)CC3)cc2)ncc1Cl
Query: Rank the items in ascending order with respect to IC50. Form entry: ranked labels (order as requested).
Reply: IV, I, II, III
(IV: 10 nM, I: 30 nM, II: 60 nM, III: 3520 nM)

I = CNC(=O)c1ccccc1Nc1nc(Nc2ccc(C(=O)N3CCN(C(=S)SCC(C)O)CC3)cc2)ncc1Cl (configuration not stated)
II = CNC(=O)c1ccccc1Nc1nc(Nc2ccc(C(=O)N3CCN(C(=S)SCCc4ccccc4)CC3)cc2)ncc1Cl
Query: I or II : whose IC50 is greater? To answer, give the label that identifies your chosen option.
Reply: II

1 = CCOC(=O)CSC(=S)N1CCN(C(=O)c2ccc(Nc3ncc(Cl)c(Nc4ccccc4C(=O)NC)n3)cc2)CC1
2 = CNC(=O)c1ccccc1Nc1nc(Nc2ccc(C(=O)N3CCN(C(=S)SCc4ccccc4)CC3)cc2)ncc1Cl
3 = CNC(=O)c1ccccc1Nc1ccnc(Nc2ccc(C(=O)N3CCN(C(=S)SCCN(C)C)CC3)cc2)n1
4 = CNC(=O)c1ccccc1Nc1nc(Nc2ccc(C(=O)N3CCN(C(=S)SCCN(C)C)CC3)cc2)ncc1Cl
5 = CNC(=O)c1ccccc1Nc1nc(Nc2ccc(C(=O)N3CCN(C(=S)SCCN(C)C)CC3)cc2)ncc1C(F)(F)F
Query: Would you mind ranking these compounds by ascending IC50? Reply with the labels, ordered as the question asks.
Reply: 5, 4, 2, 3, 1
(5: 1 nM, 4: 4 nM, 2: 50 nM, 3: 440 nM, 1: 4690 nM)

====

- Tested on: HCT-116
- assay details: Antiproliferative activity against human HCT116 cells overexpressing FAK assessed as reduction in cell viability after 72 hrs by MTS assay
- test parameters: HCT-116, 72 h
pIC50: −log10 of the molar value.
parameter: pIC50

CNC(=O)c1ccccc1Nc1nc(Nc2ccc(C(=O)N3CCN(C(=S)SCCN(C)C)CC3)cc2)ncc1C :: 8.00
CNC(=O)c1ccccc1Nc1nc(Nc2ccc(C(=O)N3CCN(C(=S)SCCO)CC3)cc2)ncc1Cl :: 7.70
CNC(=O)c1ccccc1Nc1nc(Nc2ccc(C(=O)N3CCN(C(=S)SCCN4CCCC4)CC3)cc2)ncc1Cl :: 8.00
CNC(=O)c1ccccc1Nc1nc(Nc2ccc(C(=O)N3CCN(C(=S)SCCC#N)CC3)cc2)ncc1Cl :: 7.52
CCOC(=O)C(=O)CSC(=S)N1CCN(C(=O)c2ccc(Nc3ncc(Cl)c(Nc4ccccc4C(=O)NC)n3)cc2)CC1 :: 7.22

P = CNC(=O)c1ccccc1Nc1nc(Nc2ccc(C(=O)N3CCN(C(=S)SCCC4OCCO4)CC3)cc2)ncc1Cl
Q = CNC(=O)c1ccccc1Nc1nc(Nc2ccc(C(=O)N3CCN(C(=S)SCCN4CCCCC4)CC3)cc2)ncc1Cl
R = CNC(=O)c1ccccc1Nc1nc(Nc2ccc(C(=O)N3CCN(C(=S)SCCN(C)C)CC3)cc2)ncc1OC
S = CNC(=O)c1ccccc1Nc1nc(Nc2ccc(C(=O)N3CCN(C(=S)SCc4cccnc4)CC3)cc2)ncc1Cl
T = CNC(=O)c1ccccc1Nc1nc(Nc2ccc(C(=O)N3CCN(C(=S)SCC4CCOCC4)CC3)cc2)ncc1Cl
Query: # desc sort on pIC50 across 5 compounds Write the labels out in the order the request specifies.
Reply: Q, S, P, T, R
(Q: 8.00, S: 7.52, P: 7.30, T: 7.05, R: 6.80)
